src = patent US20250074920A1

Recorded measurements of % Ctrl, one per entry
tested on: TRKC; assay: KINOMEscan kinase binding assay; conditions: at 1 μM
State the value, then name its unit.

Cc1cc2c([nH]1)/C=C1\C(=O)Nc3ccc(cc31)-c1c(nn(C)c1C)COCCN(C)C2=O [Cpd. 2]    22%
Cc1cc2c([nH]1)/C=C1\C(=O)Nc3ccc(cc31)-c1c(nn(C)c1C)OCCCN(C)C2=O [Cpd. 1]    94%
Cc1cc2c([nH]1)/C=C1\C(=O)Nc3c(Cl)cc(cc31)-c1cn(C)nc1COC[C@@H](C)NC2=O [Cpd. 3]    100%
C[C@@H]1COCc2nn(C)cc2-c2cc(Cl)c3c(c2)/C(=C/c2[nH]ccc2C(=O)N1)C(=O)N3 [Cpd. 4]    100%

Let us examine a further case.
Prompt: Fill in reported % Ctrl for this entry: Cc1cc2c([nH]1)/C=C1\C(=O)Nc3c(Cl)cc(cc31)-c1cn(C)nc1COC[C@@H](C)N(C)C2=O [Cpd. 5]
Response: 98%
